# TARGET: p-Akt3 in WM115 cells (Homo sapiens, UniProt Q9Y243)
# Construct: SureFire assays to detect cellular p-Akt1, p-Akt2 and p-Akt3 levels in WM115 cells (Akt2/3) and LNCaP cells (Akt1); endogenous in cells; host or cells: WM115 (ECACC 91061232), insulin-stimulated
# Sequence (Q9Y243 whole entry): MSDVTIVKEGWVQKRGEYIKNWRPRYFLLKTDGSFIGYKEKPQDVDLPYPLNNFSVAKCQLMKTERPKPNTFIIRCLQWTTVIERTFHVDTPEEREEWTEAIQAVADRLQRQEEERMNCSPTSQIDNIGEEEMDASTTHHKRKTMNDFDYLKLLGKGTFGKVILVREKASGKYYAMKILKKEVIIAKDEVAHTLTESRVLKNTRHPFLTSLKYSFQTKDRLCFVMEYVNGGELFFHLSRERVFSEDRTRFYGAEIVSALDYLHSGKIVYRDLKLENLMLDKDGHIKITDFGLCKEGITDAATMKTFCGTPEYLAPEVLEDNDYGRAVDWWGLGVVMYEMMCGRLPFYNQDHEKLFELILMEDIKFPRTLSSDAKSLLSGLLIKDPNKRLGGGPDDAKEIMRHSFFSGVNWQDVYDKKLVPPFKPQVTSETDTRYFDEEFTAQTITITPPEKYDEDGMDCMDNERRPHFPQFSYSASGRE
# ASSAY_NOTES: Phospho-Akt cellular SureFire assay, p-Akt3 in WM115 cells
# Format: cell-based
# CONDITION_SET: insulin stimulated, read-out: Biological Assay 2 IC50 (nM) Akt3 WM115
Answer each item with its documented IC50.
Give bare numbers, in nM.

# SMI, TARGET, IC50, nM
rows = [
    ("COC(=O)N(C)[C@H]1CC[C@H](CC(=O)Nc2cc(-c3ccccc3)c(-c3ccc(C4(N)CC4)c(F)c3)nn2)CC1", "p-Akt3 in WM115 cells (Homo sapiens, UniProt Q9Y243)", 1000),
    ("CCOC(=O)N(C)[C@H]1CC[C@H](CC(=O)Nc2cc(-c3ccccc3)c(-c3ccc(C4(N)CC4)cc3)nn2)CC1", "p-Akt3 in WM115 cells (Homo sapiens, UniProt Q9Y243)", 370),
    ("CCC(=O)N(CC)[C@H]1CC[C@H](CC(=O)Nc2cc(-c3ccccc3)c(-c3ccc([C@]4(N)C[C@](C)(O)C4)cc3)nn2)CC1", "p-Akt3 in WM115 cells (Homo sapiens, UniProt Q9Y243)", 7),
    ("CCCC(=O)N[C@H]1CC[C@H](CC(=O)Nc2cnc(-c3ccc(C4(N)CC4)cc3)c(-c3ccccc3)c2)CC1", "p-Akt3 in WM115 cells (Homo sapiens, UniProt Q9Y243)", 59),
    ("CC(C)(N)c1ccc(-c2ncc(NC(=O)C[C@H]3CC[C@H](N4CCCC4=O)CC3)cc2-c2ccccc2)cc1", "p-Akt3 in WM115 cells (Homo sapiens, UniProt Q9Y243)", 170),
]

Please look at the following compound next.
stdin: Look up IC50: `CC(=O)N[C@H]1CC[C@H](CC(=O)Nc2cnc(-c3ccc([C@]4(N)C[C@H](F)C4)cc3)c(-c3ccccc3)c2)CC1`
stdout: 21

----------
# TARGET: Akt3 (Homo sapiens)
# Construct: unspecified tag, removed (detagged) (cleaved yes); purchased SignalChem and Proteros (Akt3); Merck Millipore (PDK1) 14-452 (PDK1); none given for Akt3
# Sequence (Q9Y243 whole entry): as above
# ASSAY_NOTES: Akt activation assay (PDK1-mediated activation, LANCE Ultra crosstide TR-FRET), Akt3
# Assay type: biochemical
# CONDITION_SET: read-out: Biological Assay 1 IC50 (nM) Akt3
Records here are stratified by IC50; strata: lower segment: < 20 nM; middle segment: ≥ 20 nM and < 200 nM; upper segment: ≥ 200 nM

Example cases with answers are listed next.
# SMI, DISCRETE_LABEL
rows = [
    ("CCC(=O)N(C(C)C)[C@H]1CC[C@H](CC(=O)Nc2cc(-c3ccccc3)c(-c3ccc([C@]4(N)C[C@](C)(O)C4)cc3)nn2)CC1", "lower segment"),
    ("CCC(=O)N(C)[C@H]1CC[C@H](CC(=O)Nc2cc(-c3ccccc3F)c(-c3ccc(C4(N)CCC4)cc3)cn2)CC1", "lower segment"),
    ("CC(=O)N(C)[C@H]1CC[C@H](CC(=O)Nc2cc(-c3ccsc3)c(-c3ccc(C4(N)CC4)c(F)c3)nn2)CC1", "middle segment"),
    ("Cc1cscc1-c1cc(NC(=O)C[C@H]2CC[C@H](N(C)S(C)(=O)=O)CC2)cnc1-c1ccc(C2(N)CCC2)cc1", "upper segment"),
    ("COC(=O)N(C)[C@H]1CC[C@H](CC(=O)Nc2cnc(-c3ccc([C@]4(N)C[C@H](F)C4)cc3)c(-c3ccccc3)c2)CC1", "middle segment"),
    ("CC(C)C(=O)N(C)[C@H]1CC[C@H](CC(=O)Nc2cnc(-c3ccc(C(C)(C)N)cc3)c(-c3ccccc3)c2)CC1", "middle segment"),
]

Attention now shifts to the item below.
stdin: Exam item: assign `CCN(C(C)=O)[C@H]1CC[C@H](CC(=O)Nc2cc(-c3ccccc3)c(-c3ccc([C@]4(N)C[C@](C)(O)C4)cc3)cn2)CC1` to the correct category.
stdout: lower segment
